# assayed.target: WT KRAS (Homo sapiens, UniProt P01116)
# Sequence (P01116 1-188 isoform P01116-2): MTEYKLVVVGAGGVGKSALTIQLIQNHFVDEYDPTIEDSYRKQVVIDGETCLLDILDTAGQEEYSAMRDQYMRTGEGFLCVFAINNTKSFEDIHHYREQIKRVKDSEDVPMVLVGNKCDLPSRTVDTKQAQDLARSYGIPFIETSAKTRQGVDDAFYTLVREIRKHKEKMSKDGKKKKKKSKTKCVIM
# assay.comment: KRAS WT Probe Displacement Assay (TR-FRET, GDP-loaded)
# Type: binding
# particulars: KRAS WT, read-out: KRAS^WT Probe Displacement Assay IC50
# IC50 values compiled below

C=C1CN2C[C@H](F)C[C@]2(COc2nc3c4c(nc(-c5cc(N)cc(C)c5C(F)(F)F)c(F)c4n2)OCC[C@@H]2[C@@H]4CC[C@H](CN32)N4)C1 [Example 210]; 3 to 1000 nM
Cc1cc(N)cc(-c2nc3c4c(nc(OCC5(CN6C[C@@H]7[C@@H](F)[C@@H]7C6)CC5)nc4c2F)N2C[C@H]4CC[C@H](N4)[C@H]2CCO3)c1C(F)(F)F [Example 169]; 3 to 1000 nM
Cc1cc(N)cc(-c2nc3c4c(nc(OCC5(CN6CCC(C#N)CC6)CC5)nc4c2F)N2C[C@H]4CC[C@H](N4)[C@H]2CCO3)c1C(F)(F)F [Example 165]; 0.3 to 3 nM

If you can, please state the reported IC50 value of Cc1cc(N)cc(-c2nc3c4c(nc(OC[C@H]5COC[C@H]5N(C)C)nc4c2F)N2C[C@H]4CC[C@H](N4)[C@H]2CCO3)c1C(F)(F)F [Example 41] .
3 to 1000 nM

Same read-out for Cc1cc(N)cc(-c2nc3c4c(nc(OCC5(CN6[C@@H]7CC[C@H]6COC7)CC5)nc4c2F)N2C[C@H]4CC[C@H](N4)[C@H]2CCO3)c1C(F)(F)F [Example 107] ?
3 to 1000 nM

Then what about the molecule Cc1cc(N)cc(-c2nc3c4c(nc(OCC5(CN6CC=CC6C6(O)CC6)CC5)nc4c2F)N2C[C@H]4CC[C@H](N4)[C@H]2CCO3)c1C(F)(F)F (stereo partly drawn) [Example 162] ?
3 to 1000 nM

====

# pIC50 values compiled below
# assayed.target: KRAS G12D (Homo sapiens, UniProt P01116, G12D)
# Sequence (P01116 1-188 isoform P01116-2 G12D): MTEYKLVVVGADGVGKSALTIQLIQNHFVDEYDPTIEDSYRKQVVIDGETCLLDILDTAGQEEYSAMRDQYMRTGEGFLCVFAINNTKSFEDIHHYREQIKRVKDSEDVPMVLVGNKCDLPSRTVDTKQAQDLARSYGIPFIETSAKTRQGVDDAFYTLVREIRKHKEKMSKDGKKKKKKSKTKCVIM
# assay.comment: KRAS G12D Probe Displacement Assay (TR-FRET, GDP-loaded)
# Assay type: binding
# particulars: KRAS G12D, read-out: KRAS^G12D Probe Displacement Assay IC50
pIC50: −log10 of the molar value.

Worked examples follow.
Cc1cc(N)cc(-c2nc3c4c(nc(OCC5(CN6CCC7(CC6)CC(F)(F)C7)CC5)nc4c2F)N2C[C@H]4CC[C@H](N4)[C@H]2CCO3)c1C(F)(F)F; > 9.52
Cc1cc(N)cc(-c2nc3c4c(nc(OCC5(C)CC(F)CN(C6CCOCC6)C5)nc4c2F)N2C[C@H]4CC[C@H](N4)[C@H]2CCO3)c1C(F)(F)F (single isomer, unassigned) [Example 233]; 8.52 to 9.52
[2H]C([2H])([2H])N1CCC[C@H]1[C@H](C)Oc1nc2c3c(nc(-c4cc(N)cc(C)c4C(F)(F)F)c(F)c3n1)OCC[C@@H]1[C@@H]3CC[C@H](CN21)N3; > 9.52
Cc1cc(N)cc(-c2nc3c4c(nc(OCC5(CN6C[C@H]7C[C@@H]6CO7)CC5)nc4c2F)N2C[C@H]4CC[C@H](N4)[C@H]2CCO3)c1C(F)(F)F; > 9.52
Cc1cc(N)cc(-c2nc3c4c(nc(OCC5(CN(C)C)CC5(F)F)nc4c2F)N2C[C@H]4CC[C@H](N4)[C@H]2CCO3)c1C(F)(F)F (some centres unmarked) [Example 16]; > 9.52
Cc1cc(N)cc(-c2nc3c4c(nc(OCC5(CN6CC=CC6C6(O)CC6)CC5)nc4c2F)N2C[C@H]4CC[C@H](N4)[C@H]2CCO3)c1C(F)(F)F (some centres unmarked); > 9.52
Cc1cc(N)cc(-c2nc3c4c(nc(OCC5(CN6CCC[C@@H]6C)CC5)nc4c2F)N2C[C@H]4CC[C@H](N4)[C@H]2CCO3)c1C(F)(F)F; > 9.52
Cc1cc(N)cc(-c2nc3c4c(nc(O[C@@H](C)[C@@H]5CC6(CN5C)CC6(F)F)nc4c2F)N2C[C@H]4CC[C@H](N4)[C@H]2CCO3)c1C(F)(F)F (single isomer, unassigned); > 9.52
Cc1cc(N)cc(-c2nc3c4c(nc(O[C@H]5CCOC[C@H]5N(C)C)nc4c2F)N2C[C@H]4CC[C@H](N4)[C@H]2CCO3)c1C(F)(F)F; 6.00 to 8.52
CO[C@@H]1CN2C[C@H](F)C[C@]2(COc2nc3c4c(nc(-c5cc(N)cc(Cl)c5C(F)(F)F)c(F)c4n2)OCC[C@@H]2[C@@H]4CC[C@H](CN32)N4)C1; > 9.52

Suppose we examine the molecule CO[C@H]1CN2C[C@H](F)C[C@]2(COc2nc3c4c(nc(-c5cc(N)cc(Cl)c5C(F)(F)F)c(F)c4n2)OCC[C@@H]2[C@@H]4CC[C@H](CN32)N4)C1 ; what pIC50 value has been reported?
> 9.52

The values you see were collected from patent US20260347373A1.
